Test system: Neuregulin-1 EGF-like domain
TEST_METHOD_NOTES: binders of neuregulin-1 EGF-like domain, primary screen, biochemical, small-molecule microarray, 635 nm fluorescence (AID 1081);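 also: binding of the protein to compounds printed on small-molecule microarray slides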
SETUP_CONDITIONS: small-molecule microarray binding, higher = more signal
Given measured composite z-score, output met if it is greater than or equal to 1 and not met if not.

| COMPOUND | CLASS_LABEL |
| --- | --- |
| COc1ccc(CCNC(=O)[C@@]2(Sc3ccc(C)cc3)CC(=O)N(C3Cc4ccccc4C3)[C@@H]2c2ccc(CO)cc2)cc1 | met |
| C=C(C)c1cc2c(c(CCCCCC)n1)[Si](C(C)C)(C(C)C)OC2 | not met |
| O=C1OCCC=C[C@H]2OC34C=CCN(Cn5nnc6ccccc65)C(=O)[C@H]3N(CCCCCCO)C(=O)[C@@H]4C12 (some centres not stated) | met |
| C=CCNC(=O)[C@H]1[C@@H]2C(=O)O[C@@H](c3ccccc3)[C@@H](c3ccccc3)N2[C@@H](c2ccc(O)cc2)[C@]12C(=O)Nc1ccc(C#CC3(O)CCCCCC3)cc12 | not met |
| O[C@@H](Cc1ccccc1)[C@@H](/C=C/C1CC1)N(CC#Cc1ccccc1)Cc1cccc(Cl)c1 | not met |
| C=CCN1Cc2ccccc2[C@H]2OC(c3ccc(OCCCO)cc3)=N[C@@]2(CC=C)C1=O | met |

###

Reported composite z-score values for a set of compounds
SYSTEM_NAME: Focal adhesion kinase 1 (Homo sapiens)
TEST_METHOD_NOTES: small-molecule microarray binders of FAK, primary screen, biochemical, 635/667 nm fluorescence, BSA, DTT (AID 1130);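 also: composite of spot emission at 667 nm and signal to noise over triplicate slides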
SETUP_CONDITIONS: PTK2 binding, 635 nm fluorescence, higher = more signal
VALUE_TYPE: composite z-score

| SMILES_STR | RECORDED_NUMBER |
| --- | --- |
| CCCC[C@@H]1C[C@H]1[C@@H](NC(=O)Cc1ccccc1)c1ccc(-c2ccccc2)cc1 | 0.913 |
| CCOC(=O)C1=CC[C@@H](c2cccc(Cl)c2)N(S(=O)(=O)c2ccc(C)cc2)C1 | 0.399 |
| COCCCNC(=O)[C@@]1(Cc2ccccc2CN=[N+]=[N-])N=C(c2ccc(OCCCO)cc2)O[C@H]1c1ccccc1 | 0.895 |
| COC(=O)[C@@]1(Cc2ccccc2N=[N+]=[N-])N=C(c2ccc(OCCCO)cc2)O[C@H]1c1ccccc1N=[N+]=[N-] | 0.909 |

###

TEST_METHOD_NOTES: small-molecule microarray binders of probe aLefty2, primary screen, biochemical, biotinylated probe, 635/667 nm fluorescence (AID 1094);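 also: score merges spot fluorescence near 667 nm with spot signal-to-noise ratio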
SETUP_CONDITIONS: higher = more signal
Given measured composite z-score, output satisfied if it is greater than or equal to -0.2 and not satisfied if not.

| MOLECULE | CLASS_LABEL |
| --- | --- |
| COc1cc(OC)c(C(O)C2C=CC3C(=O)N(C)C(=O)C3N2NC(=O)OC(C)(C)C)cc1Br (configuration not stated) | satisfied |
| CCOC(=O)C1=CC[C@@H](c2ccccc2C(F)(F)F)N(S(=O)(=O)c2ccc(C)cc2)[C@H]1c1ccc(C#N)cc1 | satisfied |
| CCOC(=O)[C@H]1[C@@H]2C(=O)N3CCC[C@H]3[C@H](O[Si](C(C)C)(C(C)C)C(C)C)[C@H]2C=C2CCN(S(=O)(=O)c3ccc(C)cc3)C[C@H]21 | satisfied |
| CN(C)CCCNC(=O)[C@@]1(c2ccc([N+](=O)[O-])cc2)CC(=O)N(CC23CC4CC(CC(C4)C2)C3)[C@@H]1c1ccc(CO)cc1I | satisfied |
| COC(=O)[C@@]1(Cc2ccc(OC)cc2)[C@H]2c3cc(C(=O)N(C)C)n(Cc4ccc(Cl)c(C(F)(F)F)c4)c3C[C@H]2CN1C(=O)c1ccccc1 | satisfied |
| CN(C)C(=O)C1N=C(c2ccc(OCCCO)cc2)N(c2ccccc2)O1 (configuration not stated) | not satisfied |
